Source listed as patent US9944600B2.

Please respond with reported activity at 1 µM for every item in the list.
molecular target: human GPR119 receptor (Homo sapiens, UniProt Q8TDV5); construct: host or cells: GeneBLAzer T-Rex GPR 119 CHO-K1 DA cells (CHO-K1); experiment: Activity test for human GPR119 receptor (GeneBLAzer T-Rex GPR 119 CHO-K1 DA cells, fluorescence reporter); type: cell-based; settings: test compound conc. 1 μM; human GPR119 CHO-K1 reporter cells, 5 hours treatment; ratio to vehicle control well; read-out: % Activation
Sequence (Q8TDV5 whole entry): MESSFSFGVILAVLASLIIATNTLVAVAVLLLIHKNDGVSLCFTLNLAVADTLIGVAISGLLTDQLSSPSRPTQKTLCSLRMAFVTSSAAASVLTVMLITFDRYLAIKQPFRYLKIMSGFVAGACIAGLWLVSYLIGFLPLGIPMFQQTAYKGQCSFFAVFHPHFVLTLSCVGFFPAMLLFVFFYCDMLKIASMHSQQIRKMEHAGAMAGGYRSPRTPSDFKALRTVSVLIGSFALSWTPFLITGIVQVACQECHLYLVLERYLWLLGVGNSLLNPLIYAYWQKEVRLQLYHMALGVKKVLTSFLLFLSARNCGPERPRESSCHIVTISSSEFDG
Reply numerically in %, unit not repeated.

Challenge: What measured activity at 1 µM is associated with CC(C)(F)CN1CCC(COc2cnc(-c3ccc(C(=O)N4CCC[C@H]4C(N)=O)c(F)c3)cn2)CC1 on human GPR119 receptor (Homo sapiens, UniProt Q8TDV5)?
Response given: 291

Challenge: What measured activity at 1 µM is associated with CCC(F)(CC)CN1CCC(COc2cnc(-c3ccc(C(=O)N4CCCC[C@@H]4C(N)=O)c(F)c3)nc2)CC1 on human GPR119 receptor (Homo sapiens, UniProt Q8TDV5)?
Response given: 474

Challenge: What measured activity at 1 µM is associated with O=C(c1ccc(-c2ccc(OCC3CCN(CC4(C(F)(F)F)CCC4)CC3)nc2)cc1F)N1CC[C@H](O)C1 on human GPR119 receptor (Homo sapiens, UniProt Q8TDV5)?
Response given: 228

Challenge: What measured activity at 1 µM is associated with NC(=O)[C@@H]1CCCN1C(=O)c1ccc(-c2cnc(OCC3CCN(CC4(C(F)(F)F)CCC4)CC3)cn2)cc1 on human GPR119 receptor (Homo sapiens, UniProt Q8TDV5)?
Response given: 314

Challenge: What measured activity at 1 µM is associated with CC(C)(F)CN1CCC(COc2cnc(-c3ccc(C(=O)N4CCC[C@H]4C(N)=O)c(F)c3)nc2)CC1 on human GPR119 receptor (Homo sapiens, UniProt Q8TDV5)?
Response given: 459

Challenge: What measured activity at 1 µM is associated with CC(C)(F)CN1CCC(COc2ccc(-c3ccc(C(=O)N4CC[C@@H](O)C4)cc3)cc2)CC1 on human GPR119 receptor (Homo sapiens, UniProt Q8TDV5)?
Response given: 204

Challenge: What measured activity at 1 µM is associated with NC(=O)[C@@H]1CCCN1C(=O)c1ccc(-c2ccc(OCC3CCN(CC4(C(F)(F)F)CC4)CC3)nc2)cc1 on human GPR119 receptor (Homo sapiens, UniProt Q8TDV5)?
Response given: 310

Challenge: What measured activity at 1 µM is associated with CC(C)(F)CN1CCC(COc2cnc(-c3ccc(C(=O)N4CCC[C@H]4C(N)=O)cc3)cn2)CC1 on human GPR119 receptor (Homo sapiens, UniProt Q8TDV5)?
Response given: 232

Challenge: What measured activity at 1 µM is associated with NC(=O)[C@@H]1CCCN1C(=O)c1ccc(-c2ccc(OCC3CCN(CC4(C(F)(F)F)CCC4)CC3)nc2)cc1 on human GPR119 receptor (Homo sapiens, UniProt Q8TDV5)?
Response given: 344

Challenge: What measured activity at 1 µM is associated with CN(CCO)C(=O)c1ccc(-c2ccc(OCC3CCN(CC(C)(C)F)CC3)cc2)cc1 on human GPR119 receptor (Homo sapiens, UniProt Q8TDV5)?
Response given: 232

Challenge: What measured activity at 1 µM is associated with NC(=O)[C@H]1CCCCN1C(=O)c1ccc(-c2ccc(OCC3CCN(CC4(C(F)(F)F)CCC4)CC3)c(F)c2)cc1 on human GPR119 receptor (Homo sapiens, UniProt Q8TDV5)?
Response given: 241

Challenge: What measured activity at 1 µM is associated with CC(C)(F)CN1CCC(COc2ccc(-c3ccc(C(=O)N4CCC[C@@H]4CO)cc3)cc2)CC1 on human GPR119 receptor (Homo sapiens, UniProt Q8TDV5)?
Response given: 269

Challenge: What measured activity at 1 µM is associated with CC(C)(F)CN1CCC(COc2cnc(-c3ccc(C(=O)N4CCCC[C@@H]4C(N)=O)c(F)c3)nc2)CC1 on human GPR119 receptor (Homo sapiens, UniProt Q8TDV5)?
Response given: 478

Challenge: What measured activity at 1 µM is associated with NC(=O)[C@@H]1CCCN1C(=O)c1ccc(-c2ccc(OCC3CCN(CC4(C(F)(F)F)CCC4)CC3)cc2)cc1 on human GPR119 receptor (Homo sapiens, UniProt Q8TDV5)?
Response given: 305

Challenge: What measured activity at 1 µM is associated with NC(=O)[C@@H]1CCCN1C(=O)c1ccc(-c2ccc(OCC3CCN(CC4(C(F)(F)F)CCC4)CC3)c(F)c2)cc1 on human GPR119 receptor (Homo sapiens, UniProt Q8TDV5)?
Response given: 296

* * *

Target: GPR 119 Receptor (Mus musculus)
Construct: from tissue; host or cells: whole animal: male C57/6J Jms mice (normal) or diet induced obesity C57BL/6J mice
Sequence (Q7TQP3 1-335): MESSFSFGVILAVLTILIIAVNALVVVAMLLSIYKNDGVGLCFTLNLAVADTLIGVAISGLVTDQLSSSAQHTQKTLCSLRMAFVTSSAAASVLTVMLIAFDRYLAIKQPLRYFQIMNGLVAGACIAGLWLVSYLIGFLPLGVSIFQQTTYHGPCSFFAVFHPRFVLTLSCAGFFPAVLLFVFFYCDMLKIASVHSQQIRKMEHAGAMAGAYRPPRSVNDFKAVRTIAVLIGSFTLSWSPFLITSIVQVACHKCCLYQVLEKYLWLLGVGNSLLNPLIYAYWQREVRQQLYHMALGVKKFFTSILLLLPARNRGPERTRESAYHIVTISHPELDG
Assay: Glucose tolerance test in normal mouse (animal test of activity for the GPR 119 receptor)
Format: in vivo
Conditions: normal male C57/6J Jms mice, oral glucose 2 g/kg, whole blood glucose AUC
Each entry gets label 0 if its Decrease % of AUC at 10 mg/kg stays under 40%, and label 1 if its Decrease % of AUC at 10 mg/kg is 40% or above.

Challenge: Kindly determine if Decrease % of AUC at 10 mg/kg recorded for CC(C)(F)CN1CCC(COc2cnc(-c3ccc(C(=O)N4CCC[C@H]4C(N)=O)c(F)c3)cn2)CC1 is above or exactly 40%.
Response given: label 0

Challenge: Kindly determine if Decrease % of AUC at 10 mg/kg recorded for CC(C)(F)CN1CCC(COc2cnc(-c3ccc(C(=O)N4CCC[C@H]4C(N)=O)c(F)c3)nc2)CC1 is above or exactly 40%.
Response given: label 0

Challenge: Kindly determine if Decrease % of AUC at 10 mg/kg recorded for CN(C)C(=O)c1ccc(-c2ccc(OCC3CCN(CC(C)(C)F)CC3)cc2)cc1 is above or exactly 40%.
Response given: label 1

Challenge: Kindly determine if Decrease % of AUC at 10 mg/kg recorded for CCc1cnc(N2CCC(c3nc(COc4ccc(-n5cnnn5)cc4)cs3)CC2)nc1 [MBX-2982, reference compound] is above or exactly 40%.
Response given: label 0

Challenge: Kindly determine if Decrease % of AUC at 10 mg/kg recorded for CC(C)(F)CN1CCC(COc2cnc(-c3ccc(C(=O)N4CCCC[C@@H]4C(N)=O)c(F)c3)nc2)CC1 is above or exactly 40%.
Response given: label 1

Challenge: Kindly determine if Decrease % of AUC at 10 mg/kg recorded for CC(C)(F)CN1CCC(COc2ccc(-c3ccc(C(=O)N4CCC[C@H]4C(N)=O)c(F)c3)nc2)CC1 is above or exactly 40%.
Response given: label 1

Challenge: Kindly determine if Decrease % of AUC at 10 mg/kg recorded for CC(C)(F)CN1CCC(COc2ccc(-c3ccc(C(=O)N4CCC[C@H]4C(N)=O)c(F)c3)cn2)CC1 is above or exactly 40%.
Response given: label 0

Challenge: Kindly determine if Decrease % of AUC at 10 mg/kg recorded for NC(=O)[C@@H]1CCCN1C(=O)c1ccc(-c2ccc(OCC3CCN(CC4(C(F)(F)F)CC4)CC3)nc2)cc1 is above or exactly 40%.
Response given: label 0

Challenge: Kindly determine if Decrease % of AUC at 10 mg/kg recorded for NC(=O)[C@@H]1CCCN1C(=O)c1ccc(-c2ccc(OCC3CCN(CC4(C(F)(F)F)CCC4)CC3)nc2)cc1 is above or exactly 40%.
Response given: label 1

Challenge: Kindly determine if Decrease % of AUC at 10 mg/kg recorded for CC(C)(F)CN1CCC(COc2ccc(-c3ccc(C(=O)N4CC[C@H](O)C4)c(F)c3)cc2)CC1 is above or exactly 40%.
Response given: label 1

* * *

Please respond with reported activity at 0.1 µM for every item in the list.
target: human GPR119 receptor (Homo sapiens, UniProt Q8TDV5); construct: host or cells: GeneBLAzer T-Rex GPR 119 CHO-K1 DA cells (CHO-K1); assay: Activity test for human GPR119 receptor (GeneBLAzer T-Rex GPR 119 CHO-K1 DA cells, fluorescence reporter); assay type: cell-based; conditions: test compound conc. 0.1 μM; human GPR119 CHO-K1 reporter cells, 5 hours treatment; ratio to vehicle control well; read-out: % Activation
Reply numerically in %, unit not repeated.

Challenge: Look up activity at 0.1 µM for this compound: CC(C)(F)CN1CCC(COc2ccc(-c3ccc(C(=O)N4CCC[C@H]4C(N)=O)c(F)c3)cn2)CC1
Response given: 289

Challenge: Look up activity at 0.1 µM for this compound: CC(C)(CN1CCC(COc2ccc(-c3ccc(C(=O)N4CCC[C@@H](O)C4)cc3)cn2)CC1)C(F)(F)F
Response given: 257

Challenge: Look up activity at 0.1 µM for this compound: CC(C)(F)CN1CCC(COc2ccc(-c3ccc(C(=O)N4CC[C@@H](O)C4)cc3)cc2)CC1
Response given: 149
